measurementTarget: von Hippel-Lindau disease tumor suppressor/Histone deacetylase 3 (Homo sapiens, UniProt O15379+P40337)
Sequence (O15379 whole entry, looked up): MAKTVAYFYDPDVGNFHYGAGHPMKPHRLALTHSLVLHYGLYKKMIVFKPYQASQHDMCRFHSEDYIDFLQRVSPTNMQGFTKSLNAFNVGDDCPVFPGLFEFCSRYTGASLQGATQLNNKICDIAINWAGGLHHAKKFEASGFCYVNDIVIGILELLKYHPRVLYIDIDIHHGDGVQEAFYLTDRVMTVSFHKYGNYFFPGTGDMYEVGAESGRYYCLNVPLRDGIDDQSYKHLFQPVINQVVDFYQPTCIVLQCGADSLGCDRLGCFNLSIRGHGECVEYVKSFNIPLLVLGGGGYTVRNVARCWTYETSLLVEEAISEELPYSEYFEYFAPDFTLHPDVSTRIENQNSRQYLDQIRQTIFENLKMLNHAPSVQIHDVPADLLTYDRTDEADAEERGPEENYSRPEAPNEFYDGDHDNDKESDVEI
Sequence (P40337 whole entry, looked up): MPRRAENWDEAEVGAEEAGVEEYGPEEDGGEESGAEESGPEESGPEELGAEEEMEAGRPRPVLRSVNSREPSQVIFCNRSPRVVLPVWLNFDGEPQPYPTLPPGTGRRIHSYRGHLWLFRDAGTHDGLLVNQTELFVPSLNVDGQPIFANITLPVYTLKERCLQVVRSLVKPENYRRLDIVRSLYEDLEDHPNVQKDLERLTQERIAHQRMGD
protocolDescription: Protac activity at VHL/HDAC3 in human HCT-116 cells assessed as induction of HDAC3 degradation at 1 to 10 uM incubated for 24 hrs by Western blot analysis
Type: cell-based
runConditions: dose 1-10 µM
Calls of active or inactive are those of the source. No cut-off for these calls is given here.
Just give me one of these, please: yes (active), no (inactive)

Recorded results for 3 compounds are shown here.
Cc1ncsc1-c1ccc(CNC(=O)[C@@H]2C[C@@H](O)CN2C(=O)[C@@H](NC(=O)CCCCCCCCC(=O)Nc2ccc(C(=O)Nc3ccccc3N)cc2)C(C)(C)C)cc1: no
Cc1ncsc1-c1ccc(CNC(=O)[C@@H]2C[C@@H](O)CN2C(=O)[C@@H](NC(=O)COCCOCC(=O)Nc2ccc(C(=O)Nc3ccccc3N)cc2)C(C)(C)C)cc1: no
Cc1ncsc1-c1ccc(CNC(=O)[C@@H]2C[C@@H](O)CN2C(=O)[C@@H](NC(=O)CCCN2CCN(CCCC(=O)Nc3ccc(C(=O)Nc4ccccc4N)cc3)CC2)C(C)(C)C)cc1: no

Asked: Can you look up the reported call for Cc1ncsc1-c1ccc(CNC(=O)[C@@H]2C[C@@H](O)CN2C(=O)C(NC(=O)CCCCCCCCCCC(=O)Nc2ccc(C(=O)Nc3ccc(F)cc3N)cc2)C(C)(C)C)cc1 (single isomer, unassigned) for me?
Given back: yes

Asked: Then Cc1ncsc1-c1ccc(CNC(=O)[C@@H]2CC(O)CN2C(=O)[C@@H](NC(=O)COCCOCCOCCOCC(=O)Nc2ccc(C(=O)Nc3ccccc3N)cc2)C(C)(C)C)cc1 (single isomer, unassigned) ?
Given back: no

Asked: Then "Cc1ncsc1-c1ccc(CNC(=O)[C@@H]2C[C@@H](O)CN2C(=O)[C@@H](NC(=O)CCCCCCCC(=O)Nc2ccc(C(=O)Nc3ccccc3N)cc2)C(C)(C)C)cc1" ?
Given back: no
